assay_notes: MicroPET distribution of [^18F]-GA after PG polysaccharides intervention
Assay type: in vivo, mice
condition_description: male, Kunming, mouse, lungs, intravenous, mice, control group, Time(s) 3300; read-out: %ID/g of [^18F]-GA in the lungs, Con

{"compound": "CC1(C)[C@@H](O)CC[C@]2(C)[C@H]3C(=O)C=C4[C@@H]5C[C@@](C)(C(=O)NCCCC[18F])CC[C@]5(C)CC[C@@]4(C)[C@]3(C)CC[C@@H]12 [[^18F]-GA, [^18F]-Glycyrrhetinic acid]", "tissue uptake at 3300 s (%ID/g)": 1.26}

----------
assay_notes: MicroPET distribution of [^18F]-GA after PG polysaccharides intervention
Format: in vivo, mice
condition_description: male, Kunming, mouse, lungs, po, mice, PG polysaccharides orally for 7 days, Time(s) 5700; read-out: %ID/g of [^18F]-GA in the lungs, LA
observed_property: tissue uptake at 168 h (%ID/g)

{"compound": "CC1(C)[C@@H](O)CC[C@]2(C)[C@H]3C(=O)C=C4[C@@H]5C[C@@](C)(C(=O)NCCCC[18F])CC[C@]5(C)CC[C@@]4(C)[C@]3(C)CC[C@@H]12 [[^18F]-GA, [^18F]-Glycyrrhetinic acid]", "observed_property": "tissue uptake at 168 h", "obs_value": 1.06}
